# binding signal per entry
Target: T1, RBFOX1 RRM (Homo sapiens, UniProt Q9NWB1 109-208)
T1 sequence: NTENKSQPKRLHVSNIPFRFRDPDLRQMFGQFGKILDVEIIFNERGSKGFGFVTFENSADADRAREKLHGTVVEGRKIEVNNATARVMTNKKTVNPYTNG
Test: EMSA; HiTS-Eq, 1 nM pool, 10 min; buffer printed only for the single-RNA assays: 10 mM Tris pH 7.5, 150 mM NaCl, 3.4 mM EDTA, 0.001% NP-40, 30 C
Conditions: tags: His6 N-terminal (pET28a); label: 5' 32P
Over roughly 16,000 sequences, “ka relative to ugcaugu” has its median near 0.0091; the highest 2% begin near 0.032. The full list was thinned out, with the highest values kept by preference.

>  <BINDER>
UACUGGA (DNA:RNA) RNA: GGGAGACCGGAAUUCAGAUUGUCCUACUGGAUUAAAUCCCGUCGUAGCCACCA DNA 1: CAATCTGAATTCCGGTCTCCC DNA 2: TGGTGGCTACGACGGGATT

>  <binding signal>
0.00358 KA relative to UGCAUGU

$$$$
>  <BINDER>
UACCAUC (DNA:RNA) RNA: GGGAGACCGGAAUUCAGAUUGUCCUACCAUCUUAAAUCCCGUCGUAGCCACCA DNA 1: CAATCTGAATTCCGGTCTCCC DNA 2: TGGTGGCTACGACGGGATT

>  <binding signal>
0.000341 KA relative to UGCAUGU

$$$$
>  <BINDER>
AACAGAA (DNA:RNA) RNA: GGGAGACCGGAAUUCAGAUUGUCCAACAGAAUUAAAUCCCGUCGUAGCCACCA DNA 1: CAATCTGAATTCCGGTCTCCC DNA 2: TGGTGGCTACGACGGGATT

>  <binding signal>
0.00258 KA relative to UGCAUGU

$$$$
>  <BINDER>
CCAUAAU (DNA:RNA) RNA: GGGAGACCGGAAUUCAGAUUGUCCCCAUAAUUUAAAUCCCGUCGUAGCCACCA DNA 1: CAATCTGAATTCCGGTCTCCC DNA 2: TGGTGGCTACGACGGGATT

>  <binding signal>
0.00169 KA relative to UGCAUGU

$$$$
